Measured LD50, listed per entry for reference.
- run description: Acute toxicity, LD50 by the Weil method, intraperitoneal administration in the mouse
- test settings: in vivo, ip, N = 4 K = 4, confidential limits given
Report only the number, with the unit mg/kg understood.

LD50 for COc1ccccc1OC(=O)C(CSC(C)=O)NC(=O)C(C)SC(=O)c1cccs1 (stereo not shown) [(9)] ?
1230

LD50 for COc1ccccc1OC(=O)C(C)NC(C)=O (stereo not shown) [(3), 2-methoxyphenyl ester of N-acetylalanine] ?
1150

LD50 for COc1ccccc1OC(=O)C(CS)NC(=O)C(C)SC(=O)c1cccs1 (stereo not shown) [(8)] ?
980

LD50 for COc1ccccc1OC(=O)C(CSCC(=O)O)NC(=O)C(C)SC(=O)c1cccs1 (stereo not shown) [(10)] ?
1340

LD50 for COc1ccccc1OC(=O)CNC(C)=O [(1), 2-methoxyphenyl ester of N-acetlyglycine] ?
1010

LD50 for COc1ccccc1OC(=O)C(CS)NC(C)=O (stereo not shown) [(5)] ?
1270

LD50 for COc1ccccc1OC(=O)C(C)NC(=O)C(C)SC(=O)c1cccs1 (stereo not shown) [(4)] ?
960

LD50 for COc1ccccc1OC(=O)C(CSC(C)=O)NC(C)=O (stereo not shown) [(6)] ?
1580

LD50 for COc1ccccc1OC(=O)CNC(=O)C(C)SC(=O)c1cccs1 (stereo not shown) [Compound (2)] ?
1240

Please examine the following record next.
LD50 for COc1ccccc1OC(=O)C(CSCC(=O)O)NC(C)=O (stereo not shown) [(7)] ?
1250
